Attribution: paper PMC12040169

# TEST_DESCRIPTION: in vitro
# CONDITION_INFO: human, hela cells, % viability
Listed next: entries and their corresponding viability at 28.5 h, 10 µM.
Express the result in % but write the number alone.

COMPOUND	viability at 28.5 h, 10 µM (%)
O=C(CSc1nnc(-c2cccnc2)n1-c1ccc(Br)cc1)Nc1ccc2c(c1)OCCO2	96.4

Using the record for Cc1ccc(OC(C)C(=O)NCc2ccccc2)cc1 (centres unmarked) , report its viability at 28.5 h, 10 µM.
101

What about O=C(Nc1cccc(S(=O)(=O)N2CCOCC2)c1)c1cc2ccccc2oc1=O ?
107

What about N#C/C(=C\c1ccc(O)cc1)c1nc(-c2ccc3c(c2)OCO3)cs1 ?
96.8

What about CC(C)C(=O)N[C@H]1C[C@@H](Cc2cc(CN3CCOCC3)on2)C1(C)C ?
99.8

What about Cc1nc(C)c(CCC(=O)NC2CCCc3ccccc32)c(=O)[nH]1 (centres unmarked) ?
98.7

What about Nc1nnc(Nc2ccc(Cl)cc2)[nH]1 ?
91.7

----------
# TEST_DESCRIPTION: in vitro
# CONDITION_INFO: human, hela cells, % viability
EXPERIMENTAL_READOUT: viability at 28.5 h, 10 µM (%)
Express the result in % but write the number alone.

Using the record for C=Cn1cc(CN2CCCC(O)(c3ccc(F)cc3)CC2)c(C)n1 (stereo not shown) , report its viability at 28.5 h, 10 µM.
106

What about CC(=O)Nc1ccc(N2CC34C=CC(O3)C(C(=O)O)C4C2=O)cc1 (stereo not shown) ?
100

What about Nc1nnc(Cn2c(-c3nonc3N)nc3ccccc32)s1 ?
117

What about CC1CCCCN1C(=O)CN1C(=O)N2CCN=C2c2ccccc21 (stereo not shown) ?
102

What about Nc1nc2cccnc2cc1-c1cccc(OCc2ccccc2)c1 ?
99.2

What about CCOC(=O)c1sc2nc(C(C)N3CCCCC3)[nH]c(=O)c2c1C (stereo not shown) ?
111

What about Cc1ccccc1Sc1cc(C(F)(F)F)ccn1 ?
94.4

What about C=C(C)Cn1c(SCC(C)C)nnc1-c1ccccc1OC(F)(F)F ?
97.7

What about CC(Oc1cc(Cl)ccc1Cl)c1nnc(S)n1C (stereo not shown) ?
84.8

What about CC(C)OC(=O)N1CCN(C(=O)c2cn(Cc3cccc(S(C)(=O)=O)c3)nn2)CC1 [CBK160994T] ?
88.5

----------
# TEST_DESCRIPTION: in vitro
# CONDITION_INFO: human, hela cells, % viability
Mark 1 for viability at 28.5 h, 10 µM under 90%, 0 if at or over.

Examples from the recorded data:
MOLECULE	ANSWER_LABEL
COc1cccc(-n2c(=O)[nH]c3c(C(N)=O)nc(-c4ccccc4)nc32)c1	0
CCN(CC)C(=O)c1cnoc1-c1ccc(Br)cc1	0
O=C(O)C1=NN(c2ccccc2)C(=O)CC1	1
CC1CCc2nc(NS(=O)(=O)c3ccccc3)sc2C1 (centres unmarked)	0
O=C(Nc1cccnc1)c1cc(C(=O)c2ccc(Cl)cc2Cl)c[nH]1	0
CCCc1nn(CC(=O)NC(C)(C)C)c(=O)c2cc3ccsc3n12	1
CCc1nc(CCn2ccc3nc(OC)c(C#N)cc3c2=O)no1	0
CC(=O)NCc1ccc(C)n1C	0
CC(Oc1ccc(Cl)cc1Cl)C(=O)N1CCN(Cc2ccc3c(c2)OCO3)CC1 (centres unmarked)	0
CCNS(=O)(=O)c1ccc2c(c1)N(Cc1csnn1)CC2	1

Confirm or reject: viability at 28.5 h, 10 µM of CC[C@H]1C[N@@]2CC[C@H]1C[C@@H]2CNS(=O)(=O)c1cccc(C#N)c1 lies strictly below 90%
0

What about CN(Cc1ccccc1)C(C#N)c1c[nH]c2ccccc12 (centres unmarked) ?
0

What about Cc1cc(C)c2c(N)nc(N)nc2n1 ?
0

What about COc1cccc(OCCN2CCC3(C2)NCCc2c3[nH]c3cc(OC)ccc23)c1 (centres unmarked) ?
0

What about COC(=O)c1c(NC(=S)NNC(=O)c2nn(C)c(C)c2Br)sc2c1CCC(C)C2 (centres unmarked) ?
0

What about COC(=O)CCC(=O)N1CCC2(CCN(Cc3ccccc3)C2)C1 (centres unmarked) ?
0

----------
Listed next: entries and their corresponding viability at 28.5 h, 10 µM.
# TEST_DESCRIPTION: in vitro
# CONDITION_INFO: human, hela cells, % viability
Express the result in % but write the number alone.

Example results:
MOLECULE	EXPERIMENTAL_RESULT
O=C(Nc1ccc(Cc2ccncc2)cc1)c1cc([N+](=O)[O-])n[nH]1 [CBK269157]	99.4
CSCCC(=O)N1CCC2(CCN(C(=O)c3cc(F)c(F)cc3F)C2)C1 (centres unmarked) [CBK131397]	99.5
CC(C)(C)c1ccc(NC(=O)N2CCCN(Cc3ccccc3)CC2)cc1 [CBK085876]	116
O=C(O)c1cc(-c2ccco2)nc2ccccc12 [CBK027882]	98.3
Oc1c(CN2CCOCC2)ccc(CN2CCOCC2)c1O [CBK269979]	100
CCN1CC2(CCN(CCCCC3NC(=O)NC3=O)CC2)c2ccccc21 (centres unmarked) [CBK131489]	96
O=C(O)C(Nc1nc(C(F)(F)F)nc2ccccc12)c1ccccc1 (centres unmarked) [CBK269570]	106
CCN(Cc1ccncc1)C(=O)Nc1ccc2[nH]ccc2c1 [CBK155136]	99.5
O=C(Nc1cc(Br)ccc1O)c1cnn2c(C(F)(F)F)cc(-c3cccs3)nc12 [CBK268190]	96
COc1ccc(C(=O)NC(c2ccc(OC)c(OC)c2)c2cc(Cl)c3cccnc3c2O)cc1 (centres unmarked) [CBK263992]	96.3

Using the record for O=C(Cn1cnnn1)NCc1ccccc1 [CBK200255] , report its viability at 28.5 h, 10 µM.
83.6

What about COc1ccc(OC)c(-c2ccc(NC(=O)c3ccc(Cl)cc3Cl)c(C(=O)O)c2)c1 [CBK000393D] ?
90.8

What about O=C1NC(c2ccccc2)=NC1(NS(=O)(=O)c1ccccc1)C(F)(F)F (centres unmarked) [CBK267474] ?
88.3

What about Cc1c(C)n(CC(O)CNCc2ccco2)c2ccccc12 (centres unmarked) [CBK263970G] ?
97

What about O=C(c1cccs1)N1CCC2(CC1)Nc1ccccc1-n1cccc12 [CBK283489] ?
99.3

What about c1ccc(C2CCCNC2)cc1 (centres unmarked) [CBK011753] ?
100

What about O=C(CSc1nnc(Cc2cccc3ccccc23)n1-c1ccccc1)NC1CC1 [CBK267382] ?
86.3

What about CCc1ccc(OCC(=O)Nc2cccnc2)cc1 [CBK264658] ?
96.6

What about O=C(CCc1ccccc1)Nc1cccc(N2C(=O)C3C4c5ccccc5C(c5ccccc54)C3C2=O)c1 (centres unmarked) [CBK265409] ?
91.1

----------
# TEST_DESCRIPTION: in vitro
# CONDITION_INFO: human, hela cells, % viability
Listed next: entries and their corresponding viability at 28.5 h, 10 µM.
Express the result in % but write the number alone.

Example results:
MOLECULE	viability at 28.5 h, 10 µM (%)
O=C1NN=C(O)C1Cc1ccccc1 (stereo not shown)	101
CCN(CC)CCN(CC(=O)Nc1c(C)cccc1Cl)Cc1ccccc1	97.7
O=C(CSc1nc[nH]n1)Nc1ccc(-c2nc3ccccc3s2)cc1	81.9
O=C(Nc1cccc(NS(=O)(=O)c2ccc(Cl)cc2)c1)c1ccco1	91.2
COc1cc(NC(=O)c2cc([N+](=O)[O-])ccc2N2CCOCC2)ccc1-c1cc2ccccc2oc1=O	84.9

Using the record for CC(=O)CSc1nnc(-c2ccc(F)cc2)o1 , report its viability at 28.5 h, 10 µM.
110

What about O=C1CN(C(=O)NC2CCc3ccccc32)CCN1 (stereo not shown) ?
97.5

What about CCC(CO)Nc1nccnc1-c1cccc(C(=O)N2CCN(C)CC2)c1 (stereo not shown) ?
92.6

What about O=C(Nc1ccncc1)c1cc2cc(Cl)ccc2[nH]1 ?
95

What about O=C(CSc1ccc2nnc(-c3ccccc3)n2n1)Nc1ccccc1 ?
82.7

----------
# TEST_DESCRIPTION: in vitro
# CONDITION_INFO: human, hela cells, % viability
EXPERIMENTAL_READOUT: viability at 28.5 h, 10 µM (%)
Express the result in % but write the number alone.

Example results:
MOLECULE	UNIT_TAG	viability at 28.5 h, 10 µM
CCOC(=O)CC(=O)CSc1nc(C)cc(-c2cccs2)c1C#N	%	86.6
CCOC(=O)C1(C2CCCCC2)CCN(C(=O)c2cscn2)CC1	%	82.1
CS(=O)(=O)N(Cc1ccc(Cl)cc1)c1ccc(C(=O)N2CCC(C(N)=O)CC2)cc1	%	89.7

Using the record for CCOC(=O)c1cnc2cc(C)ccn2c1=O , report its viability at 28.5 h, 10 µM.
93.1

What about O=C1CCC(=O)N1 ?
88.7

What about COc1ccccc1CCCNC(=O)c1ccc2nc(C)[nH]c2c1 ?
84.7

What about CN1CCN(c2ccc(-c3cncc(N4CCN(c5ccncc5)CC4)n3)cn2)CC1 ?
92.9

What about CN(C)C(=O)CO[C@@H]1CO[C@H]2[C@@H]1OC[C@@H]2Nc1nccc(-c2cccc(F)c2)n1 ?
87.9

What about COc1ccccc1CN1CCCC(c2nc(C)n3ccccc23)C1 (stereo not drawn) ?
87.6
